The measured values listed here are drawn from patent US20250250357A1.

- target under test: T1, human MSLN-FL-his protein (human, UniProt Q13421 296-580)
- T1 construct: made in HEK293E cells, purified on nickel column; also called hMSLN-FL-his; human MSLN full-length protein; not shown: His tag
- T1 sequence (Q13421 other isoform, or with tags, fused parts or gaps): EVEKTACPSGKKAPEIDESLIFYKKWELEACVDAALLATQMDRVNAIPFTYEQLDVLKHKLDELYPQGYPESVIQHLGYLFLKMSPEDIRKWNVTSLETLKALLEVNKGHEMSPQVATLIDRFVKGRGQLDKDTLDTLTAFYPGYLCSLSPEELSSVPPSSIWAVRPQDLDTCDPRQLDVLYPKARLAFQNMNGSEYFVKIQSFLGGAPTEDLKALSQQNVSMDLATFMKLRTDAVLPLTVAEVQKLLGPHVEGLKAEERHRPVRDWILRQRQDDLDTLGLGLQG
- assay text: competitive ELISA; row F8-29.1; further: test concentration or dose not given here
readout: competition rate (%)
Write the value in % as a bare number.

S009-F8-28.23 (antibody, human IgG1, kappa, V domains shown, human-murine chimeric antibody, human IgG1/kappa constant regions) VH: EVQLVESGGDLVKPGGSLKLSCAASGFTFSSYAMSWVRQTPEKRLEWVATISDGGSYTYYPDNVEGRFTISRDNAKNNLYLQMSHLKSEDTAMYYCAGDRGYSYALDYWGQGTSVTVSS VL: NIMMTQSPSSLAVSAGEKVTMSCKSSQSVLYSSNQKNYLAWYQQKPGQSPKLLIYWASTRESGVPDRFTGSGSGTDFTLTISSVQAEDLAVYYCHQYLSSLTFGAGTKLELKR
18.8
S009-F8-33.12 (antibody, human IgG1, kappa, V domains shown, human-murine chimeric antibody, human IgG1/kappa constant regions) VH: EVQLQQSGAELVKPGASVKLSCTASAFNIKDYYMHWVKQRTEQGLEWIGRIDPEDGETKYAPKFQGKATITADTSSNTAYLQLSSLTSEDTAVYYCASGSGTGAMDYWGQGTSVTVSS VL: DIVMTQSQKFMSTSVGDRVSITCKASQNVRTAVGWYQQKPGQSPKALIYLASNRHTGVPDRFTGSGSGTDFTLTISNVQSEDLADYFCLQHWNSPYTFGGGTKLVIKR
70.6

From here, focus on the item given below.
Inquiry: // competition rate lookup, key: S009-F8-8.22 (antibody, human IgG1, kappa, V domains shown, human-murine chimeric antibody, human IgG1/kappa constant regions) VH: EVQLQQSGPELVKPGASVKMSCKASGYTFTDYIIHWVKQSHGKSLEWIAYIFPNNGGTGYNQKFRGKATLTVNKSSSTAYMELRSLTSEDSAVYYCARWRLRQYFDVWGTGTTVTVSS VL: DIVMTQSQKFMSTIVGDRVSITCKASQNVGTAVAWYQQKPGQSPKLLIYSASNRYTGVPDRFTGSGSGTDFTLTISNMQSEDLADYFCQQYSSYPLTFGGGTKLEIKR
Reply text: 59.2
